- TARGET DESC: yeast HSP90 (Saccharomyces cerevisiae)
- Construct: made in house; host or cells: E. coli
- ASSAY COMMENT: Malachite green HSP90 ATPase assay
- Format: biochemical
- STATED CONDITIONS: activity class; read-out: Hsp90 IC50
METRIC: IC50

{"COMPOUND": "CCc1cc(-c2n[nH]cc2-c2ccc3c(c2)OCO3)c(O)cc1O [Example 87]", "IC50": "< 10 µM"}
{"COMPOUND": "Cc1[nH]nc(-c2ccc(S(N)(=O)=O)cc2)c1-c1ccc2c(c1)OCCO2 [Example 111]", "IC50": "> 10 µM"}
{"COMPOUND": "Oc1ccc(-c2[nH]ncc2-c2ccccc2)c(O)c1 [Example 55]", "IC50": "10 to 100 µM"}
{"COMPOUND": "Cc1[nH]nc(-c2ccc(C#N)cc2)c1-c1ccc2c(c1)OCCO2 [Example 117]", "IC50": "> 10 µM"}
{"COMPOUND": "Cc1[nH]nc(-c2cc(Cl)c(O)c(Cl)c2O)c1-c1ccccc1 [Example 138]", "IC50": "> 10 µM"}

Query string: // query IC50 value for entry CCc1cc(-c2n[nH]cc2-c2ccc(OC)c(OC)c2)c(O)cc1O [Example 50]
Result string: < 10 µM

Query string: Request: O=C(NCc1ccc(-c2c[nH]nc2-c2cc(Cl)c(O)cc2O)cc1)c1ccc(-c2c3ccc(=O)cc-3oc3cc(O)ccc23)c(C(=O)O)c1 [Example 106]
Result string: < 10 µM

Query string: Another compound to look at: Oc1cc(O)c(-c2n[nH]cc2-c2ccccc2Br)cc1Cl [Example 60]
Result string: < 10 µM

Query string: Same lookup for Cc1[nH]nc(-c2ccc(O)cc2O)c1-c1cnn(-c2ccccc2)c1 [Example 137] , please.
Result string: > 10 µM

----------
Some compounds, each annotated with its measured IC50.
- TARGET DESC: yeast HSP90 (Saccharomyces cerevisiae, UniProt P02829)
- Construct: made in house; host or cells: E. coli
- Sequence (P02829 whole entry, looked up): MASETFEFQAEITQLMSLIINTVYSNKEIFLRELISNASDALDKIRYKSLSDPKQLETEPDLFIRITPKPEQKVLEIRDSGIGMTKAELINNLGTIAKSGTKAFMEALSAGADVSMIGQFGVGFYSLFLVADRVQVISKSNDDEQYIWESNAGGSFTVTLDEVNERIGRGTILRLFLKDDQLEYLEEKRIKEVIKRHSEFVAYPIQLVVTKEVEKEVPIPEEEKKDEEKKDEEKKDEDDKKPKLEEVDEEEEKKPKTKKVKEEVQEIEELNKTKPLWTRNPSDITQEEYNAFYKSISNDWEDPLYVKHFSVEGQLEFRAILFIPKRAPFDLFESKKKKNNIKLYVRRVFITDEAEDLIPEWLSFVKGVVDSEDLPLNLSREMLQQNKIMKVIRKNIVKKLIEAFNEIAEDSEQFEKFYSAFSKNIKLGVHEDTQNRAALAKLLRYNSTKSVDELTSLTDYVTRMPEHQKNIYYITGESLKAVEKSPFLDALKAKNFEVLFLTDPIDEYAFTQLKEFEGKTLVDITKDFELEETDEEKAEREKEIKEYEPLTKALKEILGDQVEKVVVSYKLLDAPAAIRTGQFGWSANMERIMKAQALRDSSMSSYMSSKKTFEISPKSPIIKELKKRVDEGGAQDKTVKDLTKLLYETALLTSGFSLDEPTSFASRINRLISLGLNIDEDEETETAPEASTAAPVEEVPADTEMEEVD
- ASSAY COMMENT: Malachite green HSP90 ATPase assay
- Assay type: biochemical
- STATED CONDITIONS: Hsp90 IC50, activity class

{"SMILES STR": "COc1ccc(-c2c(-c3ccc(O)cc3O)n[nH]c2C)cc1", "IC50": "10 to 100 µM"}

Query string: Param readout = IC50; param system = yeast HSP90 (Saccharomyces cerevisiae, UniProt P02829); param query = COc1ccc(-c2c(-c3cc(Br)c(O)cc3O)n[nH]c2C)cc1 ; response: value
Result string: < 10 µM

Query string: Param item: COc1ccc(-c2c(-c3cc(Cl)c(O)cc3O)n[nH]c2C)cc1
Result string: < 10 µM

Query string: Now try Cc1[nH]nc(-c2ccc(O)cc2O)c1-c1ccc2c(c1)OCCO2 .
Result string: 10 to 100 µM

Query string: Again, but for CCc1cc(-c2n[nH]c(C)c2-c2ccc3c(c2)OCCO3)c(O)cc1O
Result string: < 10 µM

Query string: Same thing, different compound: Oc1cc(O)c(-c2n[nH]cc2-c2ccc3c(c2)OCCO3)cc1Cl
Result string: < 10 µM

Query string: And for Cc1[nH]nc(-c2cc(Cl)c(O)cc2O)c1-c1ccc2c(c1)OCCO2 ?
Result string: < 10 µM
